Every entry's value here was drawn from patent US20110165066A1.

# target: T1, human IL-13 wild type (human, UniProt P35225 35-146)
# T1 construct: also called h IL-13; h IL-13 wt
# T1 sequence (P35225 other isoform, or with tags, fused parts or gaps limits assumed): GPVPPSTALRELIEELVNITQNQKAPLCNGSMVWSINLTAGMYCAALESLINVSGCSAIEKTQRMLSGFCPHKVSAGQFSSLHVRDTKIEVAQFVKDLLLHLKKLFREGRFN
# procedure_details: SPR (Biacore), mAb captured, IL-13 as analyte
property: koff (s⁻¹)
Reply numerically in s⁻¹, unit not repeated.

6C8 (antibody, V domains shown) VH: QVQLKESGPGLVAPSQSLSITCTVSEFSLTGSSVNWVRQPPGKGLEWLGMIWGDGRIDYNSALKSRLSISKDNSKSQVFLKMNSLQTDDTARYYCARDGYYPYAMNYWGQGTSVTVSS VL: NIVLTQSPASLAVSLGQRATISCRASESVDSYGNSFMHWYQQKPGQPPKLLIYLASNLESGVPARFSGSGSRADFTLTIDPVEADDAATYYCQQNNENPRTFGGGTKLEIKR : 0.000702

For the binder 5G1 (antibody, V domains shown) VH: QVQLQQSGAELARPGTSVKLSCKASGYTFTTYGVSWVKQRTGQGLEWIGEIYPGNYNTYYNEKFRGKATLTADKSSSTAYMQLSSLTSEDSAVYFCSRWRTSYFSDYGYFDYWGQGTTLTVSS VL: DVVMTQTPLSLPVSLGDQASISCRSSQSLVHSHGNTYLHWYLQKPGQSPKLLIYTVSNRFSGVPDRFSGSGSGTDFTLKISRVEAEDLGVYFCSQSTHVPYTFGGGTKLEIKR , report koff. 5.49e-06
